target-system: myeloperoxidase (MPO) (Homo sapiens (Human))
method-summary: MPO chlorination assay (APF assay)
Type: biochemical
condition-label: MPO chlorination, potency range class; read-out: APF Assay IC50 value
Measured IC50 values are reported for all entries that follow.

// known answers, use as guide
1) Nc1cc(Cc2cccnc2)c2nn[nH]c2n1	101 to 999 nM
2) Nc1cc(Cc2cccc(C(=O)c3ccccc3)c2)c2nn[nH]c2n1	101 to 999 nM
3) Nc1cc(Cc2cccc3c2ccn3Cc2cccc(Cc3ccccc3)c2)c2nn[nH]c2n1	1 to 100 nM
4) Nc1cc(Cc2ccc(-n3cccn3)cc2)c2nn[nH]c2n1	101 to 999 nM
5) Nc1cc(Cc2cccc(OC(F)(F)F)c2)c2nn[nH]c2n1	101 to 999 nM

Req: Need IC50, item "Nc1cc(Cc2cc(Cl)ccc2F)c2nn[nH]c2n1"
Resp: 1 to 100 nM

Req: Same again, this time with "Nc1cc(Cc2ccc(F)cc2)c2nn[nH]c2n1"
Resp: 101 to 999 nM

Req: Same again, this time with "Nc1cc(Cc2cccc(F)c2F)c2nn[nH]c2n1"
Resp: 101 to 999 nM

Req: Same again, this time with "Cc1cc(C)cc(Cc2cc(N)nc3[nH]nnc23)c1"
Resp: 101 to 999 nM

Req: Same again, this time with "Nc1cc(Cc2cccc(-c3ccn(Cc4ccccc4)n3)c2)c2nn[nH]c2n1"
Resp: 101 to 999 nM

Req: Same again, this time with "Nc1cc(Cc2ccc(Oc3ccccc3)nc2)c2nn[nH]c2n1"
Resp: 101 to 999 nM

Req: Same again, this time with "Nc1cc(Cc2cccc(C(=O)NCCc3ccccc3)c2)c2nn[nH]c2n1"
Resp: 101 to 999 nM

----------
target-system: myeloperoxidase (MPO) (Homo sapiens (Human), UniProt P05164)
Sequence (P05164 49-745): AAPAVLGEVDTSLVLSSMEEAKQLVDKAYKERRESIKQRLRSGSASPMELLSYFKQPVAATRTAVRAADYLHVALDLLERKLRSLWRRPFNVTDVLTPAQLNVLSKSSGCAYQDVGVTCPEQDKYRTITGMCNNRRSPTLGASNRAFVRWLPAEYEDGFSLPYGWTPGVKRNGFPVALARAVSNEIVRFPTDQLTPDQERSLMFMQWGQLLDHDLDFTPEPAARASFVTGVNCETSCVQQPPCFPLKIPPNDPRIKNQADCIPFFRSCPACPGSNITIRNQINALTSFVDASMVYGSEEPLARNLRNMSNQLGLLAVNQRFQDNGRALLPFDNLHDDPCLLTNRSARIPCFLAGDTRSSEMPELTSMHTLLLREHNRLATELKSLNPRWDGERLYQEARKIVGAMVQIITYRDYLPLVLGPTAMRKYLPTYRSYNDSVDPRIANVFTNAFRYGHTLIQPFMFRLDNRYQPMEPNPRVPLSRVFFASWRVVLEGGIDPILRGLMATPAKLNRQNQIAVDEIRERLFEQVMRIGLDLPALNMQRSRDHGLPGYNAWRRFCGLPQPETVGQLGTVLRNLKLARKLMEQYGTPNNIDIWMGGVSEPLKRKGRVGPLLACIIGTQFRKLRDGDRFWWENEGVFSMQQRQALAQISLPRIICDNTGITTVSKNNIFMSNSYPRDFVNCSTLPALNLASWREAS
method-summary: MPO peroxidation assay (Amplex Red assay)
Assay type: biochemical
endpoint-name: IC50

// known answers, use as guide
1) COC(=O)c1cccc(Cc2cc(N)nc3[nH]nnc23)c1 [Example 7]	1 to 100 nM
2) Nc1cc(Cc2cccc(Cl)c2)c2nn[nH]c2n1 [Example 2]	1 to 100 nM
3) Nc1cc(Cc2cccc(C(F)(F)F)c2)c2nn[nH]c2n1 [Example 26]	1000 to 10000 nM
4) Nc1cc(Cc2ccc3ccccc3c2)c2nn[nH]c2n1 [Example 6]	101 to 999 nM
5) Nc1cc(Cc2ccccc2F)c2nn[nH]c2n1 [Example 23]	1 to 100 nM
6) Nc1cc(Cc2cccc(-c3ccccc3)c2)c2nn[nH]c2n1 [Example 17]	1 to 100 nM

From here, focus on the item given below.
Req: API: value(readout= IC50, system= myeloperoxidase (MPO) (Homo sapiens (Human), UniProt P05164), query= CS(=O)(=O)c1cccc(Cc2cc(N)nc3[nH]nnc23)c1 [Example 13] )
Resp: 1000 to 10000 nM

----------
Measured IC50 values are reported for all entries that follow.
target-system: myeloperoxidase (MPO) (Homo sapiens (Human))
method-summary: MPO peroxidation assay (Amplex Red assay)
Format: biochemical
condition-label: MPO peroxidation, potency range class; read-out: Amplex Red Assay IC50 value

// known answers, use as guide
1) Nc1cc(Cc2cccc(-c3ccn(Cc4ccccc4)n3)c2)c2nn[nH]c2n1	1 to 100 nM
2) Nc1cc(Cc2cccc(-c3cccc(F)c3)c2)c2nn[nH]c2n1	101 to 999 nM
3) Nc1cc(Cc2cccc(OCc3ccccc3)c2)c2nn[nH]c2n1	101 to 999 nM
4) Cc1cc(C)cc(Cc2cc(N)nc3[nH]nnc23)c1	1 to 100 nM
5) Nc1cc(Cc2cccc(-n3cccn3)c2)c2nn[nH]c2n1	101 to 999 nM
6) Nc1cc(Cc2ccc3cc(F)ccc3c2)c2nn[nH]c2n1	101 to 999 nM

Req: Need IC50, item "Nc1cc(Cc2cccc3nn(Cc4ccccc4)cc23)c2nn[nH]c2n1"
Resp: 101 to 999 nM

Req: Same again, this time with "Nc1cc(Cc2cccc3c2ccn3Cc2ccccc2)c2nn[nH]c2n1"
Resp: 1 to 100 nM

Req: Same again, this time with "COc1ccc(Cc2cc(N)nc3[nH]nnc23)cc1"
Resp: 101 to 999 nM

Req: Same again, this time with "CCn1ccc2c(Cc3cc(N)nc4[nH]nnc34)cccc21"
Resp: 101 to 999 nM

Req: Same again, this time with "Nc1cc(Cc2ccc(-n3cccn3)cc2)c2nn[nH]c2n1"
Resp: 101 to 999 nM

Req: Same again, this time with "COc1ccc(-c2cccc(Cc3cc(N)nc4[nH]nnc34)n2)cc1"
Resp: 101 to 999 nM

Req: Same again, this time with "Nc1cc(Cc2cccc(OC(F)(F)F)c2)c2nn[nH]c2n1"
Resp: 101 to 999 nM

----------
target-system: myeloperoxidase (MPO) (Homo sapiens (Human), UniProt P05164)
method-summary: MPO chlorination assay (APF assay)
Assay type: biochemical
condition-label: MPO chlorination, potency range class; read-out: APF Assay IC50 value
endpoint-name: IC50

1) Nc1cc(Cc2cccc3c2ccn3Cc2cccc(F)c2)c2nn[nH]c2n1 [Example 64]	101 to 999 nM

Req: Need IC50, item Nc1cc(Cc2cccc3c2cnn3Cc2ccccc2)c2nn[nH]c2n1 [Example 65]
Resp: 1 to 100 nM

Req: Same again, this time with COC(=O)c1cc(Cc2cc(N)nc3[nH]nnc23)ccc1F [Example 50]
Resp: 101 to 999 nM

Req: Same again, this time with Nc1cc(Cc2cccc(-c3cccc(F)c3)c2)c2nn[nH]c2n1 [Example 14]
Resp: 1 to 100 nM

Req: Same again, this time with Nc1cc(Cc2cccc3nn(Cc4ccccc4)cc23)c2nn[nH]c2n1 [Example 66]
Resp: 101 to 999 nM

Req: Same again, this time with Nc1cc(Cc2cccc(Cc3ccccc3)c2)c2nn[nH]c2n1 [Example 16]
Resp: 1 to 100 nM

Req: Same again, this time with Nc1cc(Cc2ccc(-c3ccccc3)cc2)c2nn[nH]c2n1 [Example 37]
Resp: 101 to 999 nM

Req: Same again, this time with Nc1cc(Cc2ccc(F)c(F)c2)c2nn[nH]c2n1 [Example 34]
Resp: 101 to 999 nM

Req: Same again, this time with COc1cccc(Cc2cc(N)nc3[nH]nnc23)n1 [Example 51]
Resp: 1000 to 10000 nM

Req: Same again, this time with Nc1cc(Cc2ccc(F)cc2F)c2nn[nH]c2n1 [Example 43]
Resp: 101 to 999 nM

Req: Same again, this time with Nc1cc(Cc2cccc3c2ccn3Cc2cccc(OCc3ccccc3)c2)c2nn[nH]c2n1 [Example 63]
Resp: 1 to 100 nM

----------
Measured IC50 values are reported for all entries that follow.
target-system: UniProt:P05164
method-summary: MPO peroxidation assay (Amplex Red assay)
Type: biochemical
condition-label: MPO peroxidation, potency range class; read-out: Amplex Red Assay IC50 value

1. Nc1cc(Cc2ccc(F)cc2F)c2nn[nH]c2n1 [Example 43]	0.101 to 0.999 µM

Req: API: value(readout= IC50, system= UniProt:P05164, query= Nc1cc(Cc2cccc(C(=O)NCCc3ccccc3)c2)c2nn[nH]c2n1 [Example 47] )
Resp: 0.101 to 0.999 µM

Req: Same again, this time with Nc1cc(Cc2cccc3c2ccn3Cc2cccc(Cc3ccccc3)c2)c2nn[nH]c2n1 [Example 62]
Resp: 0.001 to 0.1 µM

Req: Same again, this time with Cn1ncc2cc(Cc3cc(N)nc4[nH]nnc34)ccc21 [Example 68]
Resp: 0.101 to 0.999 µM

Req: Same again, this time with Nc1cc(Cc2cncc(Cl)c2)c2nn[nH]c2n1 [Example 57]
Resp: 0.001 to 0.1 µM

Req: Same again, this time with Nc1cc(Cc2cccc(C(=O)c3ccccc3)c2)c2nn[nH]c2n1 [Example 40]
Resp: 0.101 to 0.999 µM

Req: Same again, this time with Cc1ccc(-c2cccc(Cc3cc(N)nc4[nH]nnc34)c2)cc1 [Example 15]
Resp: 0.101 to 0.999 µM

----------
target-system: UniProt P05164
method-summary: MPO peroxidation assay (Amplex Red assay)
Assay type: biochemical
condition-label: MPO peroxidation, potency range class; read-out: Amplex Red Assay IC50 value
endpoint-name: IC50

1) Cn1ncc2ccc(Cc3cc(N)nc4[nH]nnc34)cc21	101 to 999 nM
2) Nc1cc(Cc2cccc3c2cnn3Cc2ccccc2)c2nn[nH]c2n1	1 to 100 nM

Req: Need IC50, item "Cc1cccc(Cc2cc(N)nc3[nH]nnc23)c1F"
Resp: 1 to 100 nM

Req: Same again, this time with "Nc1cc(Cc2cc(Cl)ccc2F)c2nn[nH]c2n1"
Resp: 1 to 100 nM
